Measured log K of individual entries
Experiment: Lipophilicity, log K of the compound by HPLC analysis
Just the number.

>>> observed_result("COc1ccc(N(CC(=O)NCCCSc2ccccc2)C(=O)c2ccccc2)cc1")
-0.03

Prompt: Fill blank: measured log K of the compound `COc1ccc(N(CC(=O)NCCC[Se]c2ccccc2)C(=O)CNC(=O)OC(C)(C)C)cc1` is ____.
Response: -0.01

Prompt: Input `c1ccc2c(c1)ccc1ccccc12`
Response: 0.6

Prompt: Input `COc1ccc(N(CC(=O)NCCC[Te]c2ccccc2)C(=O)/C=C/c2ccccc2)cc1`
Response: -0.84

Prompt: Input `CC(C)(C)OC(=O)NCC(=O)OCC(=O)NCCC[Te]c1ccccc1`
Response: 0.32

Prompt: Input `COc1ccc(N(CC(=O)NCCC[Te]c2ccccc2)C(=O)c2ccccc2)cc1`
Response: -0.65

Prompt: Input `COc1ccc(N(CC(=O)NCCCSc2ccccc2)C(=O)C#Cc2ccccc2)cc1`
Response: 0.12

Prompt: Input `COc1ccc(N(CC(=O)NCCCSc2ccccc2)C(=O)CCSC2=C(C)C(=O)c3ccccc3C2=O)cc1`
Response: 0.48

Prompt: Input `COc1ccc(N(CC(=O)NCCC[Te]c2ccccc2)C(=O)CNC(=O)OC(C)(C)C)cc1`
Response: 0.05

Prompt: Input `c1ccc2ccccc2c1`
Response: 0.2
